Measured pIC50 values are reported for all entries that follow.
Subject of test: LCK (Homo sapiens)
Sequence (P06239 whole entry): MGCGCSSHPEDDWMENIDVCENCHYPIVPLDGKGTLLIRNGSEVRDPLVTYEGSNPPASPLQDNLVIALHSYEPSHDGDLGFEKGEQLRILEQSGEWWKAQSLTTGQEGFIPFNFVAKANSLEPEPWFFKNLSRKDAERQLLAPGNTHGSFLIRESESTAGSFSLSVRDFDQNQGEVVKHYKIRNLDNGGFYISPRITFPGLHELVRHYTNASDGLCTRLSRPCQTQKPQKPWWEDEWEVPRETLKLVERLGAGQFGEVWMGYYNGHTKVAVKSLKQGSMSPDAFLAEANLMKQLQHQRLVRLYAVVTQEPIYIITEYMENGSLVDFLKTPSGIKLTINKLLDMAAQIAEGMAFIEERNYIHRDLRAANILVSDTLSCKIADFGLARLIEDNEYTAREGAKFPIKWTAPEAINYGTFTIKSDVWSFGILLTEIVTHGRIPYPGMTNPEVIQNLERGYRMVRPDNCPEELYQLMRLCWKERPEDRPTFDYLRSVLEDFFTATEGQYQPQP
Test: Inhibition of a panel of kinases, in vitro HotSpot kinase assay: LCK
Type: biochemical
Settings: D-compounds panel data; 1 μM ATP; read-out: IC50 LCK
pIC50: −log10 of the molar value.

Answered cases to consult:
Compound	pIC50
Cn1cc(Nc2nc(N3C4CCC(NC(=O)c5ccc(C6CC6)cc5)C3CC4)cnc2C(N)=O)cn1 (single isomer, unassigned) [Example D-199]	< 5.00
C[C@@H]1[C@H](NC(=O)c2ccc(C3CC3)cc2)CCCN1c1cnc(C(N)=O)c(Nc2ccc3c(c2)CCOC3)n1 [Example D-303]	< 5.00
Cc1cc(Nc2nc(N3C[C@H](NC(=O)N(C)C)CC[C@H]3C)cnc2C(N)=O)sn1 [Example D-77]	5.00 to 6.00
CN(C)C(=O)N[C@H]1CCCN(c2cnc(C(N)=O)c(Nc3ccc(C4(C)CCN(C5CCCC5)CC4)cc3)n2)[C@@H]1CO [Example D-61]	5.00 to 6.00
C[C@@H]1[C@H](NC(=O)c2ccc(C3CC3)cc2)CCCN1c1cnc(C(N)=O)c(Nc2ccc(OC3CCN4CCCC4C3)cc2)n1 (stereo partly drawn) [Example D-211]	7.00 to 8.00
Cc1nsc(Nc2nc(N3CCC[C@@H](NC(=O)N(C)C)[C@H]3C)cnc2C(N)=O)c1C [Example D-119]	5.00 to 6.00

Quickly give me recorded pIC50 for C[C@@H]1[C@H](NC(=O)c2ccc(C3CC3)cc2F)CCCN1c1cnc(C(N)=O)c(Nc2nc3c(s2)CN(C)CC3)n1 [Example D-62]
< 5.00

###

Subject of test: SRC (Homo sapiens, UniProt P12931)
Sequence (P12931 whole entry): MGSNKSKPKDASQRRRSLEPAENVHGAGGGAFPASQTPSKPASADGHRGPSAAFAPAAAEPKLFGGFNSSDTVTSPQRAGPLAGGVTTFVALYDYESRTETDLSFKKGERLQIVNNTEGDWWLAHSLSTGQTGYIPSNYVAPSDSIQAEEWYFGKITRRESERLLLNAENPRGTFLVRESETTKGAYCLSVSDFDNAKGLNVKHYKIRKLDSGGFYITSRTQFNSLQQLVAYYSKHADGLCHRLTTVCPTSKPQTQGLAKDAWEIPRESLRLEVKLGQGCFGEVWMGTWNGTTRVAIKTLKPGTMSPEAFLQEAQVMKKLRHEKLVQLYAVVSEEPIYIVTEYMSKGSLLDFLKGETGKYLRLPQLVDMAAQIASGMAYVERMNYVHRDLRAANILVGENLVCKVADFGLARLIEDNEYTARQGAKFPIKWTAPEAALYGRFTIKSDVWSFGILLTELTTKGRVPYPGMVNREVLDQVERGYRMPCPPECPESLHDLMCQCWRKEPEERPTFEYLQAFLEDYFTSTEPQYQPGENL
Test: Inhibition of a panel of kinases, in vitro HotSpot kinase assay: SRC
Type: biochemical
Settings: D-compounds panel data; 1 μM ATP
Endpoint: IC50

In [3]: df
Out[3]:
                                   molecule  observed_result
0  Cc1cc(Nc2cc(N3CCC[C@@H](NC(=O)c4ccc(C5CC5)cc4F)[C@H]3C)cnc2C(N)=O)sn1   100 to 1000 nM
1  C[C@@H]1[C@H](NC(=O)c2ccc(C3CC3)cc2)CCCN1c1cnc(C(N)=O)c(Nc2cnn(C3CCN(C)CC3)c2)n1     10 to 100 nM
2  C[C@@H]1[C@H](NC(=O)c2ccc(C(F)(F)F)cc2)CCCN1c1cnc(C(N)=O)c(Nc2ccc(N3CCN(C)CC3)cc2)n1     10 to 100 nM
3  CN1CCN(C(=O)c2ccc(Nc3nc(N4CCC[C@@H](n5ccc6cc(C7CC7)ccc6c5=O)C4)cnc3C(N)=O)cc2)CC1   100 to 1000 nM
4  C[C@@H]1[C@H](NC(=O)N(C)C)CCCN1c1cnc(C(N)=O)c(Nc2ccc3cccnc3c2)n1   100 to 1000 nM

Pending molecule:
Quickly give me recorded IC50 for C[C@@H]1[C@H](NC(=O)c2ccc(C3CC3)cn2)CCCN1c1cnc(C(N)=O)c(Nc2ccc(OC3CCN(C)CC3)cc2)n1
10 to 100 nM

###

Measured IC50 values are reported for all entries that follow.
Subject of test: EGFR (Homo sapiens, UniProt P00533)
Sequence (P00533 25-1210): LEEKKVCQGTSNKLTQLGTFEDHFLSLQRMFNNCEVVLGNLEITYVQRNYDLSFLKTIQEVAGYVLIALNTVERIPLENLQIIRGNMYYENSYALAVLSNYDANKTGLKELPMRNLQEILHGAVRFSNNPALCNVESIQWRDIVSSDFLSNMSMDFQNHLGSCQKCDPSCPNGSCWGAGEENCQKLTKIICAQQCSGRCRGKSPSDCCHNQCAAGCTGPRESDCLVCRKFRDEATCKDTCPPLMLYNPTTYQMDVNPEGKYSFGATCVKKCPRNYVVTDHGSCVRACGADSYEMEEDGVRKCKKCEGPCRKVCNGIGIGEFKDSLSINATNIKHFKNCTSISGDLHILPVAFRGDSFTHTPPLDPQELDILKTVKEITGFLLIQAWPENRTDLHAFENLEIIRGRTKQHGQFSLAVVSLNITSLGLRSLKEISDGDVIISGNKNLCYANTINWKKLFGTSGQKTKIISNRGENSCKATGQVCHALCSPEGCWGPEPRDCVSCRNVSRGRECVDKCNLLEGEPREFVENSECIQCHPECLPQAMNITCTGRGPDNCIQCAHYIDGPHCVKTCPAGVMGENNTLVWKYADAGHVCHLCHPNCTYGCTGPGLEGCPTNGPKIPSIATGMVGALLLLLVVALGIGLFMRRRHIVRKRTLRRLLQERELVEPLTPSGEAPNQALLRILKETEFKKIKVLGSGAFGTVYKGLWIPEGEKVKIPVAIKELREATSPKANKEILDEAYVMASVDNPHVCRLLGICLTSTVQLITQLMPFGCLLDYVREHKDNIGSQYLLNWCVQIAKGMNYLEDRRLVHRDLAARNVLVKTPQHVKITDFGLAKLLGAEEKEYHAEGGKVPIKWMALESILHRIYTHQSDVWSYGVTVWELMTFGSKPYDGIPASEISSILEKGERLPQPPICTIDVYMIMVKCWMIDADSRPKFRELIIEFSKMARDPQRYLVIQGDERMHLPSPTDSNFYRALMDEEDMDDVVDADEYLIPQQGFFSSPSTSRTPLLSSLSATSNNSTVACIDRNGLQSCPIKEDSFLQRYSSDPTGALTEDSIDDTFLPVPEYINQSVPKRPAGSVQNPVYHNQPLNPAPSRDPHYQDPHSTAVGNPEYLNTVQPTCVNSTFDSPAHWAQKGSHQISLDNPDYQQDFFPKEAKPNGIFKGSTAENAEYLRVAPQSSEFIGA
Test: Inhibition of a panel of kinases, in vitro HotSpot kinase assay: EGFR
Type: biochemical
Settings: D-compounds panel data; 1 μM ATP

Compound	Subject of test	IC50
Cn1cc(Nc2nc(N3CCCC4(C3)CN(c3ccc(C5CC5)cc3)C(=O)O4)cnc2C(N)=O)cn1 (stereo not drawn)	EGFR (Homo sapiens, UniProt P00533)	1000 to 10000 nM
C[C@@H]1[C@H](NC(=O)c2ccc(C(O)(C(F)(F)F)C(F)(F)F)cc2)CCCN1c1cnc(C(N)=O)c(Nc2cnn(C)c2)n1	EGFR (Homo sapiens, UniProt P00533)	100 to 1000 nM
C[C@@H]1[C@H](NC(=O)c2ccc(C(O)C(F)(F)F)cc2)CCCN1c1cnc(C(N)=O)c(Nc2cnn(C)c2)n1 (single isomer, unassigned) [Example D-249]	EGFR (Homo sapiens, UniProt P00533)	1000 to 10000 nM
C[C@@H]1[C@H](NC(=O)c2ccc(C3CC3)cc2F)CCCN1c1cnc(C(N)=O)c(Nc2ccc(S(C)(=O)=O)cc2)n1	EGFR (Homo sapiens, UniProt P00533)	1000 to 10000 nM
C[C@@H]1[C@H](NC(=O)c2ccc(C(C)(C)O)cc2)CCCN1c1cnc(C(N)=O)c(Nc2cnn(C)c2)n1	EGFR (Homo sapiens, UniProt P00533)	1000 to 10000 nM

Pending compound:
Quickly give me recorded IC50 for Cc1cc(Nc2cc(N3CCC[C@@H](NC(=O)N(C)C)[C@H]3C)cnc2C(N)=O)sn1
1000 to 10000 nM

###

Subject of test: EGFR (Homo sapiens, UniProt P00533)
Test: Inhibition of a panel of kinases, in vitro HotSpot kinase assay: EGFR
Type: biochemical
Settings: D-compounds panel data; 1 μM ATP
pIC50: −log10 of the molar value.
Endpoint: pIC50

Quickly give me recorded pIC50 for C[C@@H]1[C@H](NC(=O)c2ccc(C3CC3)cc2)CCCN1c1cnc(C(N)=O)c(Nc2ccc(OC3CCN(CC(F)(F)F)CC3)cc2)n1
< 5.00

Quickly give me recorded pIC50 for C[C@@H]1[C@H](N2Cc3cc(C4CC4)ccc3C2=O)CCCN1c1cnc(C(N)=O)c(Nc2cnn(C)c2)n1
6.00 to 7.00

Quickly give me recorded pIC50 for C[C@H]1CC[C@@H](NC(=O)c2ccc(C(C)(C)O)cc2)CN1c1nnc(C(N)=O)c(Nc2cnn(C)c2)n1
5.00 to 6.00

Quickly give me recorded pIC50 for C[C@@H]1[C@H](NC(=O)c2ccc(C3CC3)cc2)CCCN1c1cnc(C(N)=O)c(Nc2ccc(N3CCN(C)CC3)c(C(F)(F)F)c2)n1
5.00 to 6.00

Quickly give me recorded pIC50 for C[C@@H]1[C@H](NC(=O)c2ccc(C3CC3)cc2)CCCN1c1cnc(C(N)=O)c(Nc2ccc(OC3CCN(C4CCCC4)CC3)cc2)n1
6.00 to 7.00

Quickly give me recorded pIC50 for C[C@@H]1[C@H](NC(=O)c2ccc(C3CC3)cc2)CCCN1c1cnc(C(N)=O)c(Nc2ccc(OC3C[C@H]4CC[C@@H](C3)N4C)cc2)n1 (stereo partly drawn) [Example D-106]
6.00 to 7.00

###

Subject of test: UniProt:P52333
Sequence (P52333 whole entry): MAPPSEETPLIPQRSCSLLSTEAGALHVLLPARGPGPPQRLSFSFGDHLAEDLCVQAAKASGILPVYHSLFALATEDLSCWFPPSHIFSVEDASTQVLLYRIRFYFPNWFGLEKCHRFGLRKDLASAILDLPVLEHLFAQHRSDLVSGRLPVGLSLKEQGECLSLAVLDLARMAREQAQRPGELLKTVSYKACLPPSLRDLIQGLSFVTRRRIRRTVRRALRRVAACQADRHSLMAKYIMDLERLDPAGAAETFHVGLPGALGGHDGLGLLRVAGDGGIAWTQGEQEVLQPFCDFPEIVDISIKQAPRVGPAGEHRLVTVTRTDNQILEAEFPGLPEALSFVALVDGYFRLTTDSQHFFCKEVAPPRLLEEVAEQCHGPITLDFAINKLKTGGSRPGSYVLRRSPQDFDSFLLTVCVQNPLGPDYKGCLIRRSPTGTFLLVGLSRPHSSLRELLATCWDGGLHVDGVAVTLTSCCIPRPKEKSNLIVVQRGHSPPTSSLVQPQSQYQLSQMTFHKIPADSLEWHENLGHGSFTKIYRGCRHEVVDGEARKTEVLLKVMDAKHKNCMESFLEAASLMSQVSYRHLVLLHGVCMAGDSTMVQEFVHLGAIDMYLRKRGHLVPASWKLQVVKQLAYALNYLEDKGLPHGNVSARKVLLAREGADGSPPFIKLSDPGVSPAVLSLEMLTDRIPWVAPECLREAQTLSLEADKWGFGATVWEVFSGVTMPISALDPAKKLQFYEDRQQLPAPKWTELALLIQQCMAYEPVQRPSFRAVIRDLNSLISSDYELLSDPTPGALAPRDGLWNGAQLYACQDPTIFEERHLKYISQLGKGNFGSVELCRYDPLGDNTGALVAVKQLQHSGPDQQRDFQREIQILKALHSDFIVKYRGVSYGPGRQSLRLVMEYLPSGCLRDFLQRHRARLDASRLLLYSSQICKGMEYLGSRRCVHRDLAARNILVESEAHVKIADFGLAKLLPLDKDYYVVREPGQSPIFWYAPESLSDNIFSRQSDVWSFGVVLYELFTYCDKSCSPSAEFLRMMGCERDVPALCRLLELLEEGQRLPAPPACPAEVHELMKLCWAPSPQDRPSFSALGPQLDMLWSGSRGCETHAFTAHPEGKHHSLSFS
Test: Inhibition of a panel of kinases, in vitro HotSpot kinase assay: JAK3
Type: biochemical
Settings: E compounds, Table 17; read-out: IC50 JAK3
Endpoint: IC50

>>> df
                                   compound  subject_of_test  observed_result
0  C=CC(=O)N1CC[C@@H](N(C)c2nnc(C(N)=O)c(Nc3ccc(C(C)C)cc3)n2)C1   UniProt:P52333          < 10 nM

Quickly give me recorded IC50 for C=CC(=O)N1CC[C@@H](N(C)c2nnc(C(N)=O)c(Nc3cc(C)ns3)n2)C1
< 10 nM

Quickly give me recorded IC50 for C[C@@H]1[C@H](NC(=O)c2ccc(C3CC3)cc2)CCCN1c1cnc(C(N)=O)c(Nc2ccc(N3CCN(C4CCCC4)C[C@@H]3C)cc2)n1
1000 to 10000 nM

Quickly give me recorded IC50 for C=CC(=O)N1CC[C@@H](N(C)c2cnc(C(N)=O)c(Nc3ccc(C4CCN(C5CCCC5)CC4)cc3)n2)C1
< 10 nM

Quickly give me recorded IC50 for C[C@@H]1[C@H](NC(=O)c2ccc(C(C)(C)N3CCCC3)cc2)CCCN1c1cnc(C(N)=O)c(Nc2cnn(C)c2)n1
100 to 1000 nM

Quickly give me recorded IC50 for C[C@@H]1[C@H](NC(=O)c2cccc(C(C)(C)O)c2)CCCN1c1cnc(C(N)=O)c(Nc2cnn(C)c2)n1
100 to 1000 nM

Quickly give me recorded IC50 for C=CC(=O)N1CCC[C@@H](Nc2nnc(C(N)=O)c(Nc3ccc(Cl)cc3)n2)[C@H]1C
< 10 nM

Quickly give me recorded IC50 for C=CC(=O)N[C@@H]1CCCN(c2nnc(C(N)=O)c(Nc3ccc(Cl)cc3)n2)[C@@H]1C
< 10 nM

Quickly give me recorded IC50 for C=CC(=O)N1CC[C@@H](N(C)c2cnc(C(N)=O)c(Nc3ccc(C4(C)CCN(C5CCCC5)CC4)cc3)n2)C1
< 10 nM

Quickly give me recorded IC50 for Cc1nc(-c2ccc(C(=O)N[C@@H]3CCCN(c4cnc(C(N)=O)c(Nc5cnn(C)c5)n4)[C@@H]3C)cc2)cs1
100 to 1000 nM

###

Subject of test: BTK-WT (Homo sapiens, UniProt Q06187)
Construct: purified from insect cells as a full-length construct containing an N-terminal 6X-His tag; His6 (N); made in house; host or cells: insect cells (baculovirus Sf21 in Method B)
Sequence (Q06187 whole entry): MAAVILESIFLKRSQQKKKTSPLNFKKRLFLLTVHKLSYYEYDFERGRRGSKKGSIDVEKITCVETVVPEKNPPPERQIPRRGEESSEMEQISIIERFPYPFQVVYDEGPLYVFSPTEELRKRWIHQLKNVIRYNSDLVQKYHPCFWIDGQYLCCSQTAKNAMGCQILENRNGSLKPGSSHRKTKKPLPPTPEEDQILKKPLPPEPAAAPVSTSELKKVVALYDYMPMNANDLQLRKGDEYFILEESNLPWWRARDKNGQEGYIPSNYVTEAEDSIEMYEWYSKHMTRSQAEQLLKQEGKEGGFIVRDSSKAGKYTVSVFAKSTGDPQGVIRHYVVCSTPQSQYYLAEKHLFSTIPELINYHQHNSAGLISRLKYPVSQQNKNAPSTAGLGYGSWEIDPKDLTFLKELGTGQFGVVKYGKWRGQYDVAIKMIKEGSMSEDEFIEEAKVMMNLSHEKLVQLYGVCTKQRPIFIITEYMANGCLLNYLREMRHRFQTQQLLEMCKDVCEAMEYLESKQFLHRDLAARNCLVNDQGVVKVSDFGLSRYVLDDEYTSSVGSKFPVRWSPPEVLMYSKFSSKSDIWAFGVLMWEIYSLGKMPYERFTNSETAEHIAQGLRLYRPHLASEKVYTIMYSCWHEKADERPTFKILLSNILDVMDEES
Test: Btk in vitro inhibitory activity (one of Method A TR-FRET, Method B electrophoretic mobility shift, Method C radiometric filter binding)
Format: biochemical
Settings: D-compounds panel data; read-out: IC50 BTK-WT
pIC50: −log10 of the molar value.
Measured pIC50 values are reported for all entries that follow.

Answered cases to consult:
In [3]: df
Out[3]:
                                   molecule  endpoint  observed_result
0  C[C@@H]1[C@H](NC(=O)c2ccc(C(C)(O)CO)cc2)CCCN1c1cnc(C(N)=O)c(Nc2cnn(C)c2)n1 (single isomer, unassigned) [Example D-256]     pIC50           ≥ 8.00
1  Cc1cc(Nc2nc(N3CCC[C@@H](c4ncc(-c5ccccc5)[nH]4)C3)cnc2C(N)=O)sn1     pIC50     7.00 to 8.00
2  C[C@@H]1[C@H](NC(=O)c2ccc(C3CC3)cc2)CCCN1c1cnc(C(N)=O)c(Nc2cc(C3CCOCC3)ns2)n1     pIC50           ≥ 8.00
3  C[C@@H]1[C@H](NC(=O)c2cc3c(n2C)CC(C)(C)C3)CCCN1c1cnc(C(N)=O)c(Nc2cnn(C)c2)n1     pIC50           ≥ 8.00
4  C[C@@H]1[C@H](NC(=O)c2ccc(C3CC3)cc2F)CCCN1c1cnc(C(N)=O)c(Nc2ccc(N3CCN(C4CCCC4)CC3)cc2)n1     pIC50           ≥ 8.00

Under BTK-WT (Homo sapiens, UniProt Q06187), report pIC50 for Cn1cc(Nc2nc(N3CCC(F)(F)[C@H](NC(=O)c4ccc(C5CC5)cc4)C3)cnc2C(N)=O)cn1
5.00 to 6.00

Under BTK-WT (Homo sapiens, UniProt Q06187), report pIC50 for CN1CCN(C(=O)c2ccc(Nc3nc(N[C@H]4CC[C@H](NC(=O)c5ccc(C6CC6)cc5F)CC4)cnc3C(N)=O)cc2)CC1
7.00 to 8.00

Under BTK-WT (Homo sapiens, UniProt Q06187), report pIC50 for C[C@@H]1[C@H](NC(=O)c2ccc(C(C)(C)C)cc2)CCCN1c1cnc(C(N)=O)c(Nc2ccc(N3CCN(C)CC3)cc2)n1
≥ 8.00

Under BTK-WT (Homo sapiens, UniProt Q06187), report pIC50 for C[C@@H]1[C@H](NC(=O)c2ccc(C3CC3)cc2)CCCN1c1cnc(C(N)=O)c(Nc2cn(C)nc2C(F)(F)F)n1
< 5.00

Under BTK-WT (Homo sapiens, UniProt Q06187), report pIC50 for C[C@@H]1[C@H](NC(=O)c2ccc(C3CC3)cc2)CCCN1c1cnc(C(N)=O)c(Nc2ccc(N3CCN(C)CC3)c(C(F)(F)F)c2)n1
≥ 8.00
